- Assay System: AaegOR10 (Aedes aegypti)
- Sequence (Q177X3 1-375): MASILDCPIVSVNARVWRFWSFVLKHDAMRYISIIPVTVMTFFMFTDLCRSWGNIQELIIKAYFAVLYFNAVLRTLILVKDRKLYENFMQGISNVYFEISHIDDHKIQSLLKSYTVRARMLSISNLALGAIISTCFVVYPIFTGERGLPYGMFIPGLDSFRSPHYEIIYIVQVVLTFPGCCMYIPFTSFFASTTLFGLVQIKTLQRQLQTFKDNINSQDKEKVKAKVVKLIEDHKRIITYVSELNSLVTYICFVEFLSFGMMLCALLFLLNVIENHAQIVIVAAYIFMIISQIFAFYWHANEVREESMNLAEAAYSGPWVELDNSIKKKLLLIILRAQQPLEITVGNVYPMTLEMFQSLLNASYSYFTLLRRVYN
- Sequence (Q178U6 1-478 partner): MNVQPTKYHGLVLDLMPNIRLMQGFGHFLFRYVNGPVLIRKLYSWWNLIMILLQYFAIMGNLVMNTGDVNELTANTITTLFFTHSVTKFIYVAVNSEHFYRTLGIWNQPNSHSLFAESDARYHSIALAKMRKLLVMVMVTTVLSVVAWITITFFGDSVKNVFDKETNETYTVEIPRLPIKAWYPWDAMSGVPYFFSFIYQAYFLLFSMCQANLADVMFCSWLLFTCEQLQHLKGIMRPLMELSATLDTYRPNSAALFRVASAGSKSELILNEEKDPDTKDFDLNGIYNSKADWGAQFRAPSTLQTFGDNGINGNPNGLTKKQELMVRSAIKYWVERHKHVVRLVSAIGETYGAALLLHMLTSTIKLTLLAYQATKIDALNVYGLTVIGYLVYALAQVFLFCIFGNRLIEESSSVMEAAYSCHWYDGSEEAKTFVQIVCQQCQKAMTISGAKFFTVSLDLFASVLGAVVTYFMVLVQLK
- Method Description: Two-electrode voltage clamp of Xenopus laevis oocytes expressing AaegOR10/Orco (blends, unitary compounds, concentration-response)
- Protocol Conditions: AaegOR10/Orco expressing oocytes, TEVC, concentration-response of normalized current
Measurement Kind: pEC50
Note on pEC50: it is the negative log10 of concentration, concentration in mol/L.

Query: Provide pEC50, system AaegOR10 (Aedes aegypti), entry Cc1c[nH]c2ccccc12
Response: 6.80

---

- Assay System: AaegOR31 (Aedes aegypti, UniProt Q16JU0)
- Sequence (Q16JU0 1-381, one chain of several): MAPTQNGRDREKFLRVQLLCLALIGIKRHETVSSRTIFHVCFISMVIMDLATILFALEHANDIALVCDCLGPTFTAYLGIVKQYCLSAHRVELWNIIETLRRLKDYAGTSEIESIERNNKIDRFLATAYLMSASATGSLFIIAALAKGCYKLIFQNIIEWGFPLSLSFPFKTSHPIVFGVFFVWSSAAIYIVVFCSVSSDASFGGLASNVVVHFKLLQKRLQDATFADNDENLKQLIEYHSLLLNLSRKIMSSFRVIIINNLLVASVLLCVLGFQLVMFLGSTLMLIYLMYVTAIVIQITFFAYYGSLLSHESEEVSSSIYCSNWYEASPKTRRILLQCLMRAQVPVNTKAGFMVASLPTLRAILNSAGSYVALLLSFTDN
- Method Description: Two-electrode voltage clamp of Xenopus laevis oocytes expressing AaegOR31/Orco (blends, unitary compounds, concentration-response)
- Protocol Conditions: AaegOR31/Orco expressing oocytes, TEVC, concentration-response of normalized current
Measurement Kind: pEC50
Schema: pEC50 number; meaning minus log10 of the concentration expressed in molar units.

Query: Give pEC50 for CC(C)=CCC/C(C)=C/CC/C(C)=C/CO
Response: 4.84

---

- Assay System: AaegOR11 (Aedes aegypti, UniProt Q16PN4)
- Sequence (Q16PN4 1-420, one chain of several): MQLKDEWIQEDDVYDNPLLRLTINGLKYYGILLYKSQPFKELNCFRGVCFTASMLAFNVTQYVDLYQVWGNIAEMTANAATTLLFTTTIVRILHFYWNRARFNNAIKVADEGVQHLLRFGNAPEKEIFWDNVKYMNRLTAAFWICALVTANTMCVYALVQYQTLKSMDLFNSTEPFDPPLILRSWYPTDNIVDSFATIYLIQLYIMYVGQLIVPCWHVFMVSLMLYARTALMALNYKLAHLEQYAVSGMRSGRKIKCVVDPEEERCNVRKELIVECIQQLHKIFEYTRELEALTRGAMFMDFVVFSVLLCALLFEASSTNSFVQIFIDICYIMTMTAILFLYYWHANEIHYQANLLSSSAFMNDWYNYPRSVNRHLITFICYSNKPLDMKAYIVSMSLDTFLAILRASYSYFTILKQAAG
- Method Description: Two-electrode voltage clamp of Xenopus laevis oocytes expressing AaegOR11/Orco (blends, unitary compounds, concentration-response)
- Type: cell-based
- Protocol Conditions: individual oocytes 1-9 (replicates)
Measurement Kind: Raw data (Responses in nA), unitary compounds of blend Terpenes 3
Number only, in nA; omit the unit.

Query: Look up and report measured Raw data (Responses in nA), unitary compounds of blend Terpenes 3 for this entry: CC(=O)OCCC(C)C [Isomyl acetate]
Response: 0

Query: Provide measured Raw data (Responses in nA), unitary compounds of blend Terpenes 3 value, entry: CC(C)=CCC/C(C)=C\CO [Nerol]
Response: 0

Query: Respond only with Raw data (Responses in nA), unitary compounds of blend Terpenes 3 recorded for CC1(C)[C@H]2CC[C@]1(C)[C@H](O)C2 [(-)-Borneol]
Response: 0

Query: Supply recorded Raw data (Responses in nA), unitary compounds of blend Terpenes 3 for CCCCC/C=C\C=C\C(=O)OCC [Ethyl-2-trans-4-cis-decadienoate] here.
Response: 0
